Value source: patent US12594349B2

System: human PCSK9 locus
Assay: Secreted PCSK9 by ELISA in Huh7 cells transfected with mRNA and gRNA
Assay type: cell-based
Conditions: Huh7 cells, LTRP5-ADD-ZIM3 mRNA + gRNA scaffold 316, 25 ng mRNA:12.5 ng gRNA, 6 days post-transfection, normalized to total cell count
Record form. Attribute: Secreted PCSK9. Fill in for each entry.
Answer format: numeric, ng/mL implied, no suffix.

Reported Secreted PCSK9 ( TG-06-155 (guide GCAGCGACGUCGAGGCGCUC; listed as RNA, chemistry not given here) ) = 56.36

Reported Secreted PCSK9 ( TG-06-118 (guide GAGUGAAAUGGCCUGCUCUG; listed as RNA, chemistry not given here) ) = 54.78

Reported Secreted PCSK9 ( TG-06-121 (guide GGAAGGGCUGUCGAUACUGG; listed as RNA, chemistry not given here) ) = 37.13

Reported Secreted PCSK9 ( TG-06-119 (guide GAGCAGGCCAUUUCACUCGG; listed as RNA, chemistry not given here) ) = 84.54

Reported Secreted PCSK9 ( TG-06-147 (guide GUGUUUCCUGGGUCCACCUU; listed as RNA, chemistry not given here) ) = 37.43

Reported Secreted PCSK9 ( TG-06-134 (guide GAAUUCUAUGGUAGGCACAA; listed as RNA, chemistry not given here) ) = 57.45

Reported Secreted PCSK9 ( TG-06-117 (guide ACUUUGUUUGCAAAGACCUC; listed as RNA, chemistry not given here) ) = 98.05
